Consider the following compounds and their measured EC50 readings.
Biological target: rat PTH1R (Rattus norvegicus (Rat), UniProt P25961)
Sequence (P25961 27-591): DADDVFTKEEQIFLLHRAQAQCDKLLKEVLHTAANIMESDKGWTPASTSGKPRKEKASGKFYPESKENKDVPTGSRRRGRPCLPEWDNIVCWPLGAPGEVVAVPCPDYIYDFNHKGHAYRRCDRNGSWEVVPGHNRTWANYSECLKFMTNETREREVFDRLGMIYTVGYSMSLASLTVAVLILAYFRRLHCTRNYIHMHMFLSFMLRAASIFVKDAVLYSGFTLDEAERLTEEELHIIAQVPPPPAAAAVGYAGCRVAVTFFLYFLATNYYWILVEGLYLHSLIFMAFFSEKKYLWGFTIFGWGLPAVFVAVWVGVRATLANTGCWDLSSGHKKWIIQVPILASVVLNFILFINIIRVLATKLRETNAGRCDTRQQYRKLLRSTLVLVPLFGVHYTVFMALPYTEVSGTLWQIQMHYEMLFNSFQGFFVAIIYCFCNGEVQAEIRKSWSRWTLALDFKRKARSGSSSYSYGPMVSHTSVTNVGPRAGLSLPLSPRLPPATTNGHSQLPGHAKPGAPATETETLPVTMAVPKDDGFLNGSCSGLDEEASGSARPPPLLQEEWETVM
Test: In vitro cAMP signaling activity via the rat PTH1R (LLC-PK46_RATO_PTH1R cells)
Details: LLC-PK46_RATO_PTH1R cells overexpressing rat PTH1R; 50% cAMP signaling activity
property: EC50 (nM)

{"compound": "Cc1cc(N2C(=O)NC(=O)C23COC3)cc(C)c1CCS(=O)(=O)N1CCC2(CC1)N=C(c1ccc(OC(F)(F)F)cc1)NC2=O", "property": "EC50", "readoutNumber": 12000}
{"compound": "Cc1cc(N2C(=O)CNC2=O)ccc1CCS(=O)(=O)N1CCC2(CC1)N=C(c1cccc(OC(F)(F)F)c1)NC2=O [Comparative Example 1, reference compound]", "property": "EC50", "readoutNumber": 2300}
{"compound": "Cc1cc(N2C(=O)NC(=O)C23CCCC3)cc(C)c1CCS(=O)(=O)N1CCC2(CC1)N=C(c1ccc(OC(F)(F)F)cc1)NC2=O", "property": "EC50", "readoutNumber": 1900}
{"compound": "Cc1cc(N2C(=O)NC(=O)C2(C)C)cc(C)c1CCS(=O)(=O)N1CCC2(CC1)N=C(c1ccc(OC(F)(F)F)cc1)NC2=O", "property": "EC50", "readoutNumber": 2400}
{"compound": "Cc1cc(N2C(=O)NC(=O)C23CC3)cc(C)c1CCS(=O)(=O)N1CCC2(CC1)N=C(c1ccc(OC(F)(F)F)cc1)NC2=O", "property": "EC50", "readoutNumber": 3200}

---

Test: Metabolic stability using rat hepatocyte
Type: in vitro ADME
Conditions: rat (SD, female) hepatocytes 1×10^6 cells/mL, compound 1 μM, 37° C.; read-out: Clearance
Consider the following compounds and their measured hepatocyte CLint at 1 μM readings.
property: hepatocyte CLint at 1 μM (µL/min/1e6 cells)

{"compound": "Cc1cc(N2C(=O)NC(=O)C23COC3)cc(C)c1CCS(=O)(=O)N1CCC2(CC1)N=C(c1ccc(OC(F)(F)F)cc1)NC2=O", "readoutNumber": 0.3}
{"compound": "Cc1cc(N2C(=O)CNC2=O)cc(C)c1CCS(=O)(=O)N1CCC2(CC1)N=C(c1cccc(OC(F)(F)F)c1)NC2=O [Comparative Example 2, reference compound]", "readoutNumber": 5.9}
{"compound": "Cc1cc(N2C(=O)NC(=O)C23CCN(C)CC3)cc(C)c1CCS(=O)(=O)N1CCC2(CC1)N=C(c1ccc(OC(F)(F)F)cc1)NC2=O", "readoutNumber": 1.8}
{"compound": "Cc1cc(N2C(=O)NC(=O)C2(C)C)cc(C)c1CCS(=O)(=O)N1CCC2(CC1)N=C(c1ccc(F)c(OC(F)(F)F)c1)NC2=O", "readoutNumber": 7.6}
{"compound": "Cc1cc(N2C(=O)NC(=O)C23CCCC3)cc(C)c1CCS(=O)(=O)N1CCC2(CC1)N=C(c1ccc(OC(F)(F)F)cc1)NC2=O", "readoutNumber": 3}
{"compound": "Cc1cc(N2C(=O)NC(=O)C2(C)C)cc(C)c1CCS(=O)(=O)N1CCC2(CC1)N=C(c1ccc(OC(F)(F)F)c(F)c1)NC2=O", "readoutNumber": 2.2}
{"compound": "Cc1cc(N2C(=O)NC(=O)C2(C)C)cc(C)c1CCS(=O)(=O)N1CCC2(CC1)N=C(c1ccc(OC(F)(F)F)cc1)NC2=O", "readoutNumber": 0.9}
{"compound": "Cc1cc(N2C(=O)NC(=O)C2(C)C)cc(C)c1CCS(=O)(=O)N1CCC2(CC1)N=C(c1ccc3c(c1)OC(F)(F)O3)NC2=O", "readoutNumber": 1}
{"compound": "Cc1cc(N2C(=O)CNC2=O)cc(C)c1CCS(=O)(=O)N1CCC2(CC1)N=C(c1ccc(F)c(C(F)(F)F)c1)NC2=O [Comparative Example 3, reference compound]", "readoutNumber": 22}
{"compound": "Cc1cc(N2C(=O)NC(=O)C2(C)C)cc(C)c1CCS(=O)(=O)N1CCC2(CC1)N=C(c1cccc(C(F)(F)F)c1)NC2=O", "readoutNumber": 1.4}
{"compound": "CCC1CCC(C2=NC3(CCN(S(=O)(=O)CCc4ccc(N5C(=O)NC(=O)C5C)cc4C)CC3)C(=O)N2)CC1 (stereo not drawn) [Comparative Example 5, reference compound]", "readoutNumber": 22}
{"compound": "Cc1cc(N2C(=O)CNC2=O)ccc1CCS(=O)(=O)N1CCC2(CC1)N=C(c1cccc(OC(F)(F)F)c1)NC2=O [Comparative Example 1, reference compound]", "readoutNumber": 5.8}
{"compound": "Cc1cc(N2C(=O)NC(=O)C2(C)C)cc(C)c1CCS(=O)(=O)N1CCC2(CC1)N=C(c1ccc(F)c(C(F)(F)F)c1)NC2=O", "readoutNumber": 17}
{"compound": "Cc1cc(N2C(=O)NC(=O)C2(C)C)cc(C)c1CCS(=O)(=O)N1CCC2(CC1)N=C(c1cccc(Br)c1)NC2=O", "readoutNumber": 3}
{"compound": "CCC1CCC(C2=NC3(CCN(S(=O)(=O)CCc4ccc(N5C(=O)NC(=O)C5(C)C)cc4C)CC3)C(=O)N2)CC1 (stereo not drawn) [Comparative Example 6, reference compound]", "readoutNumber": 22}

---

Target: human PTH1R (Homo sapiens (Human))
Sequence (Q03431 27-593): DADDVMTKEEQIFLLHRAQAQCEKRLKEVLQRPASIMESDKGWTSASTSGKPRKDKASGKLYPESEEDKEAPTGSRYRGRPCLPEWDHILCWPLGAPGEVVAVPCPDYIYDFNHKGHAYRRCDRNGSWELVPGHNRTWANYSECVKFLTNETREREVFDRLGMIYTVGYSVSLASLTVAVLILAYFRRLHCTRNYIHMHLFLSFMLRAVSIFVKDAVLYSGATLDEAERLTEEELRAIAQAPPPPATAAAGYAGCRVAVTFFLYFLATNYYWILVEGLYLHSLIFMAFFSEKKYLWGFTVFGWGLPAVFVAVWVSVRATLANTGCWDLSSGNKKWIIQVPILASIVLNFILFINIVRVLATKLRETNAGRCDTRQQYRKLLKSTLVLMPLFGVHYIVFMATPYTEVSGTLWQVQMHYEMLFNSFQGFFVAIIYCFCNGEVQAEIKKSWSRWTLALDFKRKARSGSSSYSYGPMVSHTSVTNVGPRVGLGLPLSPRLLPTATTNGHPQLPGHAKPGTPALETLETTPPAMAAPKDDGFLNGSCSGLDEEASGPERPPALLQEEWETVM
Experiment: In vitro cAMP signal activity via the human PTH1R (HKRK-B7 cells)
Conditions: concentration giving 50% cAMP signaling activity, 100 nM human PTH(1-34) = 100%
Consider the following compounds and their measured EC50 readings.

{"compound": "Cc1cc(N2C(=O)CNC2=O)cc(C)c1CCS(=O)(=O)N1CCC2(CC1)N=C(c1ccc(F)c(C(F)(F)F)c1)NC2=O [Comparative Example 3, reference compound]", "unitAbbrev": "µM", "qualifierOperator": "=", "EC50": 9}
{"compound": "CC[C@H]1CC[C@H](C2=NC3(CCN(S(=O)(=O)CCc4ccc(N5C(=O)NC(=O)C5C)cc4C)CC3)C(=O)N2)CC1 (stereo partly drawn) [Comparative Example 5, reference compound]", "unitAbbrev": "µM", "qualifierOperator": "=", "EC50": 25}
{"compound": "Cc1cc(N2C(=O)NC(=O)C2(C)C)cc(C)c1CCS(=O)(=O)N1CCC2(CC1)N=C(c1cccc(C(F)(F)F)c1)NC2=O", "unitAbbrev": "µM", "qualifierOperator": "=", "EC50": 9}
{"compound": "Cc1cc(N2C(=O)NC(=O)C23CC3)cc(C)c1CCS(=O)(=O)N1CCC2(CC1)N=C(c1ccc(OC(F)(F)F)cc1)NC2=O", "unitAbbrev": "µM", "qualifierOperator": "=", "EC50": 11}
{"compound": "Cc1cc(N2C(=O)NC(=O)C23COC3)cc(C)c1CCS(=O)(=O)N1CCC2(CC1)N=C(c1ccc(OC(F)(F)F)cc1)NC2=O", "unitAbbrev": "µM", "qualifierOperator": "=", "EC50": 21}
{"compound": "Cc1cc(N2C(=O)NC(=O)C2(C)C)cc(C)c1CCS(=O)(=O)N1CCC2(CC1)N=C(c1ccc(OC(F)(F)F)cc1)NC2=O", "unitAbbrev": "µM", "qualifierOperator": "=", "EC50": 4.1}
{"compound": "Cc1cc(N2C(=O)NC(=O)C23CCN(C)CC3)cc(C)c1CCS(=O)(=O)N1CCC2(CC1)N=C(c1ccc(OC(F)(F)F)cc1)NC2=O", "unitAbbrev": "µM", "qualifierOperator": "=", "EC50": 12}
{"compound": "Cc1cc(N2C(=O)CNC2=O)cc(C)c1CCS(=O)(=O)N1CCC2(CC1)N=C(c1cccc(OC(F)(F)F)c1)NC2=O [Comparative Example 2, reference compound]", "unitAbbrev": "µM", "qualifierOperator": "=", "EC50": 13}
{"compound": "Cc1cc(N2C(=O)NC(=O)C2(C)C)cc(C)c1CCS(=O)(=O)N1CCC2(CC1)N=C(c1cccc(Br)c1)NC2=O", "unitAbbrev": "µM", "qualifierOperator": "=", "EC50": 14}
{"compound": "Cc1cc(N2C(=O)NC(=O)C2(C)C)cc(C)c1CCS(=O)(=O)N1CCC2(CC1)N=C(c1ccc(OC(F)(F)F)c(F)c1)NC2=O", "unitAbbrev": "µM", "qualifierOperator": "=", "EC50": 7.4}
{"compound": "Cc1cc(N2C(=O)CNC2=O)ccc1CCS(=O)(=O)N1CCC2(CC1)N=C(c1cccc(OC(F)(F)F)c1)NC2=O [Comparative Example 1, reference compound]", "unitAbbrev": "µM", "qualifierOperator": "=", "EC50": 4.8}
{"compound": "CC[C@H]1CC[C@H](C2=NC3(CCN(S(=O)(=O)CCc4ccc(N5CC(=O)NC5=O)cc4C)CC3)C(=O)N2)CC1 [Comparative Example 4, reference compound]", "unitAbbrev": "µM", "qualifierOperator": ">", "EC50": 1000}
